Give Necroptosis inhibition assay (Rescue %) 1 μM for every item shown.
test system: FADD−/− Jurkat cells; assay: Necroptosis inhibition assay, TNF-α-induced necroptosis (CellTiter-Glo 2.0); assay type: cell-based, human; conditions: compound 1 μM; TNF-α 15 ng/mL
One number for each entry, in %.

Could you tell me Necroptosis inhibition assay (Rescue %) 1 μM for each of these compounds? They are listed below.
1. Nc1ncc(-c2cnn(C3CCN(CCOCCOCCOCCNC(=O)CNc4cccc5c4C(=O)N(C4CCC(=O)NC4=O)C5=O)CC3)c2)nc1C(=O)O[C@@H](C(=O)Nc1ccc(F)cc1)c1ccccc1 (stereo partly drawn) [TDH-143]
2. Nc1ncc(-c2cnn(C3CCN(CCOCCOCCOCCNC(=O)C4CCN(c5cccc6c5C(=O)N(C5CCC(=O)NC5=O)C6=O)CC4)CC3)c2)nc1C(=O)O[C@@H](C(=O)Nc1ccc(F)cc1)c1ccccc1 (stereo partly drawn) [TDH-139]
3. Nc1ncc(-c2cnn(C3CCN(C(=O)C4CCN(C(=O)COc5ccc6c(c5)C(=O)N(C5CCC(=O)NC5=O)C6=O)CC4)CC3)c2)nc1C(=O)OC(C(=O)Nc1ccc(F)cc1)c1ccccc1 (stereo not drawn) [TDH-278]

[A]
1: 20.58; 2: 18.11; 3: 63.64

* * *

biological target: MLKL (Homo sapiens, UniProt Q8NB16); assay: MLKL degradation assay in HepG2 cell line (western blot); type: cell-based; design: endogenous in cells; host or cells: HepG2 or HaCaT; settings: compound 1 μM; cell line not given
Sequence (Q8NB16 whole entry): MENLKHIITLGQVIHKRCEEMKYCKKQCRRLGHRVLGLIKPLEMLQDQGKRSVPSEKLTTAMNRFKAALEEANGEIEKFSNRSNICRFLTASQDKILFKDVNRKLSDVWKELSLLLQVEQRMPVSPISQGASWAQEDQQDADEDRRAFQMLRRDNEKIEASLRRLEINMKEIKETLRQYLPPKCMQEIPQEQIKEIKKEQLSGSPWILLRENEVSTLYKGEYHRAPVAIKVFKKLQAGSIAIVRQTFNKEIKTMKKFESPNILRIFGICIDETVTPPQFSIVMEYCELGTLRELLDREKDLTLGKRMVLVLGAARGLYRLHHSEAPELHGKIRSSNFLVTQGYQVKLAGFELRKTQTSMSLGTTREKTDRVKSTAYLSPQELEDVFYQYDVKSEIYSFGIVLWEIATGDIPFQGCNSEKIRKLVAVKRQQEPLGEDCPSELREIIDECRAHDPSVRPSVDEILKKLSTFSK
Classification field: Criterion met = Degradation assay (Degradation %) 1 μM at or over 80%; Criterion not met = Degradation assay (Degradation %) 1 μM under 80%.

Solved entries:
{"compound": "Nc1ncc(-c2cnn(C3CCN(C4CC5(CCN(CC6CCN(C(=O)c7ccc8c(N9CCC(=O)NC9=O)coc8c7)CC6)CC5)C4)CC3)c2)nc1C(=O)O[C@@H](C(=O)Nc1ccc(F)cc1)c1ccccc1", "assigned label": "Criterion met"}
{"compound": "Nc1ncc(-c2cnn(C3CCN(C4CC5(CCN(CC6CCN(C(=O)c7ccc8c(c7)CN(C7CCC(=O)NC7=O)C8=O)CC6)CC5)C4)CC3)c2)nc1C(=O)O[C@@H](C(=O)Nc1ccc(F)cc1)c1ccccc1 (stereo partly drawn)", "assigned label": "Criterion met"}

[Q] Degradation assay (Degradation %) 1 μM >= 80% for Nc1ncc(-c2cnn(C3CCN(C(=O)CCC4CCN(C(=O)CC5CCN(c6ccc7c(c6)C(=O)N(C6CCC(=O)NC6=O)C7=O)CC5)CC4)CC3)c2)nc1C(=O)O[C@@H](C(=O)Nc1ccc(F)cc1)c1ccccc1 (stereo partly drawn) ?
[A] Criterion not met

* * *

molecular target: MLKL (Homo sapiens, UniProt Q8NB16); experiment: MLKL degradation assay in HepG2 cell line (western blot); type: cell-based; design: endogenous in cells; host or cells: HepG2 or HaCaT; conditions: compound 1 μM; cell line not given
property label: Degradation assay (Degradation %) 1 μM
Record the result as a number with its unit.

{"compound": "Nc1ncc(-c2cnn(C3CCN(CCOC4CCN(C(=O)CC5CCN(c6cccc7c6C(=O)N(C6CCC(=O)NC6=O)C7=O)CC5)CC4)CC3)c2)nc1C(=O)O[C@@H](C(=O)Nc1ccc(F)cc1)c1ccccc1 (stereo partly drawn) [TDH-371]", "result value": "82.38%"}
{"compound": "Nc1ncc(-c2cnn(C3CCN(C4CC5(CCN(CC6CCN(C(=O)COc7ccc8c(c7)C(=O)N(C7CCC(=O)NC7=O)C8=O)CC6)CC5)C4)CC3)c2)nc1C(=O)O[C@@H](C(=O)Nc1ccc(F)cc1)c1ccccc1 (stereo partly drawn) [TDH-442]", "result value": "80.37%"}

Could you tell me Degradation assay (Degradation %) 1 μM for each of these compounds? They are listed below.
1. Nc1ncc(-c2cnn(C3CCN(CC4CCN(C(=O)C5CCN(c6ccc7c(c6)C(=O)N(C6CCC(=O)NC6=O)C7=O)CC5)CC4)CC3)c2)nc1C(=O)O[C@@H](C(=O)Nc1ccc(F)cc1)c1ccccc1 (stereo partly drawn) [TDH-147]
2. Nc1ncc(-c2cnn(C3CCN(CC4CCN(CC(=O)NCCNc5cccc6c5C(=O)N(C5CCC(=O)NC5=O)C6=O)CC4)CC3)c2)nc1C(=O)OC(C(=O)Nc1ccc(F)cc1)c1ccccc1 (stereo not drawn) [TDH-234]
3. Nc1ncc(-c2cnn(C3CCN(CCCN4CCN(C(=O)CNc5ccc6c(c5)C(=O)N(C5CCC(=O)NC5=O)C6=O)CC4)CC3)c2)nc1C(=O)OC(C(=O)Nc1ccc(F)cc1)c1ccccc1 (stereo not drawn) [TDH-242]
4. Nc1ncc(-c2cnn(C3CCN(CC4CCN(c5cccc6c5C(=O)N(C5CCC(=O)NC5=O)C6=O)CC4)CC3)c2)nc1C(=O)O[C@@H](C(=O)Nc1ccc(F)cc1)c1ccccc1 (stereo partly drawn) [TDH-149]
5. Nc1ncc(-c2cnn([C@@H]3CCN(CCOCCOCCNC(=O)COc4ccc5c(c4)C(=O)N(C4CCC(=O)NC4=O)C5=O)C3)c2)nc1C(=O)OC(C(=O)Nc1ccc(F)cc1)c1ccccc1 (stereo partly drawn) [TDH-270]
6. Nc1ncc(-c2cnn(C3CCN(CCOCCNC(=O)C4CN(c5ccc6c(c5)C(=O)N(C5CCC(=O)NC5=O)C6=O)C4)CC3)c2)nc1C(=O)O[C@@H](C(=O)Nc1ccc(F)cc1)c1ccccc1 (stereo partly drawn) [TDH-127]
7. Nc1ncc(-c2cnn(C3CCN(CCCN4CCN(C(=O)C5CCN(C6=CC(=O)N(C7CCC(=O)NC7=O)C6=O)CC5)CC4)CC3)c2)nc1C(=O)O[C@@H](C(=O)Nc1ccc(F)cc1)c1ccccc1 (stereo partly drawn) [TDH-526]

[A]
1: 38.91%; 2: 64.08%; 3: 75.75%; 4: 48.51%; 5: 19.32%; 6: 4.37%; 7: 67.25%

Could you tell me Degradation assay (Degradation %) 1 μM for each of these compounds? They are listed below.
1. Nc1ncc(-c2cnn(C3CCN(CCCCCCCCCCNC(=O)COc4ccc5c(c4)C(=O)N(C4CCC(=O)NC4=O)C5=O)CC3)c2)nc1C(=O)O[C@@H](C(=O)Nc1ccc(F)cc1)c1ccccc1 (stereo partly drawn) [TDH-164]
2. Nc1ncc(-c2cnn(C3CCN(C(=O)CC4CCN(C(=O)CNc5cccc6nnn(C7CCC(=O)NC7=O)c(=O)c56)CC4)CC3)c2)nc1C(=O)O[C@@H](C(=O)Nc1ccc(F)cc1)c1ccccc1 (stereo partly drawn) [TDH-411]
3. Nc1ncc(-c2cnn(C3CCN(C(=O)c4cn(C5CCN(C(=O)C6CCN(c7cccc8c7C(=O)N(C7CCC(=O)NC7=O)C8=O)CC6)CC5)cn4)CC3)c2)nc1C(=O)O[C@@H](C(=O)Nc1ccc(F)cc1)c1ccccc1 (stereo partly drawn) [TDH-362]
4. Nc1ncc(-c2cnn(C3CCN(CCOCCNc4cccc5c4C(=O)N(C4CCC(=O)NC4=O)C5=O)CC3)c2)nc1C(=O)O[C@@H](C(=O)Nc1ccc(F)cc1)c1ccccc1 (stereo partly drawn) [TDH-130]
5. Nc1ncc(-c2cnn(C3CCN(CCCN4CCN(C(=O)COc5ccc6nnn(C7CCC(=O)NC7=O)c(=O)c6c5)CC4)CC3)c2)nc1C(=O)O[C@@H](C(=O)Nc1ccc(F)cc1)c1ccccc1 (stereo partly drawn) [TDH-370]
6. COc1ccc(C(=O)N2CCC(CN3CCC(CN4CCC(n5cc(-c6cnc(N)c(C(=O)O[C@@H](C(=O)Nc7ccc(F)cc7)c7ccccc7)n6)cn5)CC4)CC3)CC2)cc1N1CCC(=O)NC1=O [TDH-477]

[A]
55.2%
53.86%
69.87%
58.3%
91.76%
92.48%
